B1: library; a variant is named by its letters at N, in order (parent)
chain: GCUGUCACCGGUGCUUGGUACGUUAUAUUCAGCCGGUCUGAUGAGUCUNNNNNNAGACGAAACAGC

Variants of: B1
Assay: normalized RNA/DNA level without ligand (relative to sTRSVctl = 100) (log10 (% of sTRSVctl)); HEK293T overexpressing SLC46A1; higher = less ribozyme self-cleavage, higher mRNA level
Conditions: without (6R,S)-folinic acid; ligand present: no
Returns 1 if the recorded normalized RNA/DNA level without ligand (log10) is greater than or equal to 2, and 0 otherwise.

## Task Check the entry `UGAUCG` : does normalized RNA/DNA level without ligand (log10) equal or exceed 2?
## Result 0

## Task Check the entry `UCACUC` : does normalized RNA/DNA level without ligand (log10) equal or exceed 2?
## Result 1

## Task Check the entry `AAAUGU` : does normalized RNA/DNA level without ligand (log10) equal or exceed 2?
## Result 0

## Task Check the entry `UCUCCC` : does normalized RNA/DNA level without ligand (log10) equal or exceed 2?
## Result 1

## Task Check the entry `UGCUAG` : does normalized RNA/DNA level without ligand (log10) equal or exceed 2?
## Result 0

## Task Check the entry `GGGCUU` : does normalized RNA/DNA level without ligand (log10) equal or exceed 2?
## Result 1

## Task Check the entry `UUGGAA` : does normalized RNA/DNA level without ligand (log10) equal or exceed 2?
## Result 0

## Task Check the entry `UAACCG` : does normalized RNA/DNA level without ligand (log10) equal or exceed 2?
## Result 0

## Task Check the entry `UGUGGG` : does normalized RNA/DNA level without ligand (log10) equal or exceed 2?
## Result 0

## Task Check the entry `UUCUUG` : does normalized RNA/DNA level without ligand (log10) equal or exceed 2?
## Result 0

## Task Check the entry `GUGUGG` : does normalized RNA/DNA level without ligand (log10) equal or exceed 2?
## Result 0

## Task Check the entry `GGCAUG` : does normalized RNA/DNA level without ligand (log10) equal or exceed 2?
## Result 1

## Task Check the entry `CAGGUC` : does normalized RNA/DNA level without ligand (log10) equal or exceed 2?
## Result 1

## Task Check the entry `CUAAUC` : does normalized RNA/DNA level without ligand (log10) equal or exceed 2?
## Result 1

## Task Check the entry `GAGAUG` : does normalized RNA/DNA level without ligand (log10) equal or exceed 2?
## Result 0
